# Tested on: MOLT-4 leukemia
# assay_protocol: NCI tumour cell line growth inhibition, 48 h
Returns one of Criterion met or Criterion not met; Criterion met when TGI is >= 50 µM.

compound: O=C1CC(c2ccccc2)NCCCCN2CC(CN1)C(C(O)c1ccccc1)C2=O (configuration not stated)
class_assignment: Criterion met
//
compound: CCOc1ccccc1NC(=O)CSc1nnc(Cc2ccccc2)o1
class_assignment: Criterion met
//
compound: NCc1ccc(O)c(O)c1O
class_assignment: Criterion met
//
compound: N#CC1=C(c2ccccc2)NN(Cc2ccccc2)C(c2ccc(Cl)cc2)CC1=O (configuration not stated)
class_assignment: Criterion met
//
compound: Cc1cc(N2CCCCC2)nc(NCc2cc(Nc3ccnc4cc(Cl)ccc34)ccc2F)n1
class_assignment: Criterion not met
//
compound: CCOC(=O)c1ccc(OCc2nc3cc(C(F)(F)F)ccc3nc2-c2ccccc2)cc1
class_assignment: Criterion met
//
compound: COC(=O)c1ccc(CS(=O)(=O)c2ccccc2)cc1
class_assignment: Criterion met
//
compound: CCN(CC)c1ccc(CNc2cc(C)nc3ccc(OC)cc23)cc1
class_assignment: Criterion not met
//
compound: Cn1ncc2c(=O)[nH]c(-c3ccccc3)nc21
class_assignment: Criterion met
//
compound: CN(C)CCNC(=O)c1ccccc1Nc1c(Cl)cccc1Cl
class_assignment: Criterion not met
//
compound: COc1ccc(-c2cc(=O)c3c(OC)c(O)c(OC)cc3o2)cc1
class_assignment: Criterion met
//
compound: CC(C)(C)c1cc(O)c2c(c1O)C(=O)CCC2
class_assignment: Criterion met
//
compound: Cc1nc2ccc(F)cc2c2c1CCN2c1ccccc1
class_assignment: Criterion met
//
compound: Clc1ccc(/C=c2\nc(-c3ccccc3)n3c2nc2ccccc23)cc1
class_assignment: Criterion met
//
compound: Cc1cccc(NC(N)=S)c1
class_assignment: Criterion met
//
compound: S=C(Nc1ccc(Cl)cc1)c1ccc(CN2CCCCC2)s1
class_assignment: Criterion not met
//
compound: CC(=O)O[C@H]1C[C@H]2[C@@H]([C@H](OC(C)=O)C[C@@H]3CC4(CC[C@@]32C)OOC2(CCCCC2)OO4)[C@@H]2CC[C@H]([C@H](C)CCC(N)=O)[C@@]12C
class_assignment: Criterion not met
//
compound: O=C(Nc1ccc(-n2ccc3c(NC(=O)c4ccccc4)ncnc32)cc1)Nc1ccc(Cl)c(C(F)(F)F)c1
class_assignment: Criterion not met
//
compound: CC(=O)CC(=O)ON(C)C(C)=O
class_assignment: Criterion met
//
compound: COc1ccc(-c2cnc(SCC(=O)c3c(C)n(C)n(-c4ccccc4)c3=O)n2-c2ccc(OC)cc2)cc1
class_assignment: Criterion met
